Experiment: Amcenestrant plasma pharmacokinetics (LC-MS/MS, non-compartmental analysis)
Assay type: in vivo, human
Details: human, plasma, oral, 400 mg, Part B, 400 mg QD, Day 1, N 16; read-out: AUC0-24, Mean ± SD
parameter.measured: AUC(0-t) (ng·h/mL)
One number for each entry, in ng·h/mL.

Entry `O=C(O)c1ccc2c(c1)CCCC(c1ccc(Cl)cc1Cl)=C2c1ccc(O[C@H]2CCN(CCCF)C2)cc1` : reported AUC(0-t) = ?
50900

The reported measurements were obtained from paper PMC9284491.
